Test system: Lichtheimia corymbifera
METHOD: Antifungal activity against Absidia corymbifera 272 after 24 hrs by microdilution method
Type: functional, organism-based
ASSAY CONDITIONS: Lichtheimia corymbifera, 272, 24 h
MEASURED QUANTITY: IC80

Before answering, review these 3 worked examples.
O=C1C=CC(=O)C1=Cc1cccs1 = 500 µM
O=C1C=CC(=O)C1=Cc1ccccc1 = 250 µM
Cc1ccc(/C=C/C=C2C(=O)C=CC2=O)cc1 = > 125 µM

Here is the next item to consider.
O=C1C=CC(=O)C1=Cc1ccc(Br)cc1 tested on Lichtheimia corymbifera gave IC80: > 125 µM

* * *

Tested on: Trichophyton mentagrophytes
METHOD: Antifungal activity against Trichophyton mentagrophytes 445 after 72 hrs by microdilution method
Type: functional, organism-based
ASSAY CONDITIONS: Trichophyton mentagrophytes, 445, 72 h
MEASURED QUANTITY: IC80 (µM)
Lab book: enter the figure in µM, no units written.

Before answering, review these 2 worked examples.
O=C1C=CC(=O)C1=Cc1ccco1 = 7.81
O=C1C=CC(=O)C1=Cc1ccc2ccccc2c1 = 7.81

Noted for COC(/C=C/c1ccccc1)=C1\C(=O)C=C(C)C1=O [CORUSCANONE A] : its IC80 reads 3.91
